Overview of recorded inhibition of SARS-CoV-2 cytopathic effect for various compounds
System: Vero E6 infected with SARS-CoV-2
Experiment: inhibition of SARS-CoV-2 cytopathic effect; higher = more antiviral protection, active = above 15
Conditions: 8.33 nM; 48 h
The reply should be a number in %, with the unit left off.

# compound, assayed.target, endpoint.result
records = [
    ("CO[C@H]1C[C@@H]2CC[C@@H](C)[C@@](O)(O2)C(=O)C(=O)N2CCCC[C@H]2C(=O)O[C@H]([C@H](C)C[C@@H]2CC[C@@H](O)[C@H](OC)C2)CC(=O)[C@H](C)/C=C(\\C)[C@@H](O)[C@@H](OC)C(=O)[C@H](C)C[C@H](C)/C=C/C=C/C=C/1C", "Vero E6 infected with SARS-CoV-2", -3.33),
    ("Cc1cc(-c2ccc(CC(=O)Nc3ccc(-c4cccnc4)cc3)cc2)ccn1", "Vero E6 infected with SARS-CoV-2", -2.58),
    ("COC(=O)[C@]12CCC(C)(C)C[C@H]1[C@H]1C(=O)C=C3[C@@]4(C)C=C(C#N)C(=O)C(C)(C)[C@@H]4CC[C@@]3(C)[C@]1(C)CC2", "Vero E6 infected with SARS-CoV-2", 3.94),
    ("CC(C)(NS(=O)(=O)c1ccc(Oc2ccc(F)cc2)cc1)C(=O)NO", "Vero E6 infected with SARS-CoV-2", 0.75),
    ("C[C@]12CC[C@H](O)C[C@H]1CC[C@@H]1[C@@H]2CC[C@]2(C)[C@@](O)(c3ccoc3)CC[C@]12O", "Vero E6 infected with SARS-CoV-2", -0.48),
]

Lookup: Fill in: inhibition of SARS-CoV-2 cytopathic effect of `CN(C)CC(=O)Nc1ccc2[nH]c(=O)c3ccccc3c2c1` is ___
Found: 2.81

Lookup: Please look up its inhibition of SARS-CoV-2 cytopathic effect: `OC[C@H]1O[C@H](O[C@H]2O[C@H](CO)[C@@H](O)[C@H](O)[C@H]2O)[C@H](O)[C@@H](O)[C@@H]1O`
Found: 3.4

Lookup: What value of inhibition of SARS-CoV-2 cytopathic effect has been reported for the following compound? `Cn1c(=O)[nH]c2ncn(C)c2c1=O`
Found: 1.68

Lookup: # query: inhibition of SARS-CoV-2 cytopathic effect of entry `Oc1cccc(O)c1`
Found: -5.24

Lookup: // lookup inhibition of SARS-CoV-2 cytopathic effect for `O=C(O)c1nn(Cc2ccc(Cl)cc2Cl)c2ccccc12`
Found: 0.67

---

System: Vero E6 infected with SARS-CoV-2
Assay: SARS-CoV-2 infection rate relative to infected DMSO; higher = more infection, active = 60 or less
Details: 24 h
This section presents compounds with their documented SARS-CoV-2 infection rate values.
# unit: % | format: bare number

The examples below pair each entry with its known result.
# compound, assayed.target, endpoint.result
measured = [
    ("CCCc1c(OCCCCc2nnn[nH]2)ccc(C(C)=O)c1O [tomelukast] (10 µM)", "Vero E6 infected with SARS-CoV-2", 110),
    ("N[C@@H](C(=O)O)[C@@H](OCc1ccccc1)C(=O)O.N[C@H](C(=O)O)[C@H](OCc1ccccc1)C(=O)O (10 µM)", "Vero E6 infected with SARS-CoV-2", 106),
    ("C=C(C)[C@@H]1CC[C@]2(C(=O)O)CC[C@]3(C)[C@H](CC[C@@H]4[C@@]5(C)CC[C@H](O)C(C)(C)[C@@H]5CC[C@]43C)[C@@H]12 [betulinic-acid] (10 µM)", "Vero E6 infected with SARS-CoV-2", 108),
    ("NCCNC(=O)c1ccc(Cl)cn1 [lazabemide] (10 µM)", "Vero E6 infected with SARS-CoV-2", 106),
    ("O.O.O.O.O=C([O-])CC(O)(CC(=O)[O-])C(=O)[O-].[Li+].[Li+].[Li+] [lithium-citrate] (10 µM)", "Vero E6 infected with SARS-CoV-2", 89),
]

Lookup: Fill in the recorded SARS-CoV-2 infection rate for this compound, with Vero E6 infected with SARS-CoV-2 as test system: O=C1CCC[C@@H]2[C@H]3C[C@@H](CN12)[C@@H]1CCCCN1C3 [lupanine] (10 µM)
Found: 102

Lookup: Provide the documented SARS-CoV-2 infection rate with Vero E6 infected with SARS-CoV-2 as the system for O=C1NC(=O)c2cc(Nc3ccccc3)c(Nc3ccccc3)cc21 (10 µM)
Found: 72

Lookup: Request - read-out SARS-CoV-2 infection rate | tested on Vero E6 infected with SARS-CoV-2 | compound CC(C)(C=O)Cc1cc(C(C)(C)C)c(O)c(C(C)(C)C)c1 (10 µM)
Found: 94

Lookup: Lab note: need SARS-CoV-2 infection rate for c1ccc([C@@H]2C[C@H]2NC2CCNCC2)cc1 (10 µM) on Vero E6 infected with SARS-CoV-2, anyone have it?
Found: 114

Lookup: Query for Vero E6 infected with SARS-CoV-2: what SARS-CoV-2 infection rate does the record show for CC(C)Cc1ccc([C@@H](C)C(=O)NCCO)cc1 (racemic) [mabuprofen] (10 µM) ?
Found: 109

Lookup: Query the reported SARS-CoV-2 infection rate for Vero E6 infected with SARS-CoV-2; item: CCCCOc1cc(CC2CNC(=O)N2)ccc1OC (stereo unspecified) (10 µM)
Found: 86

Lookup: Request body: readout SARS-CoV-2 infection rate, system Vero E6 infected with SARS-CoV-2, query Cc1cc(-c2ccc(/N=N/c3ccc4c(S(=O)(=O)O)cc(S(=O)(=O)O)c(N)c4c3O)c(C)c2)ccc1/N=N/c1ccc2c(S(=O)(=O)O)cc(S(=O)(=O)O)c(N)c2c1O [evans-blue] (0.833333 µM) . Return the value.
Found: 110

Lookup: Given the entry Cc1c(N(C)CS(=O)(=O)O)c(=O)n(-c2ccccc2)n1C [metamizole] (10 µM) , what SARS-CoV-2 infection rate was observed with Vero E6 infected with SARS-CoV-2?
Found: 93.5
